Quick reference: EC (2-fold luciferase activity) of the listed items.
System: Nrf2
assayInfo: Nrf2 induction, luciferase assay in AREc32 cells
Format: cell-based
condition: Arec32, 24 h, read-out: CD (concentration that doubles luciferase activity)
endpoint: EC (2-fold luciferase activity) (µM)

structureAsSmiles	endpointUnit	modifier	valueMeasured
COC(=O)C1=C(C)N(Cc2ccccc2)C(=O)/C1=C\c1ccc(OC)cc1	µM	=	18
COC(=O)C1=C(C)N(CCc2ccccc2)C(=O)/C1=C\c1ccc(OCc2ccccc2Cl)c(OC)c1	µM	<	10
COC(=O)C1=C(C)N(CCc2ccccc2)C(=O)/C1=C\c1c[nH]c2ccccc12	µM	=	36
COC(=O)C1=C(C)N(CCc2ccccc2)C(=O)/C1=C\c1ccc(OCc2ccc(Cl)cc2)c(OC)c1	µM	=	14

###

Quick reference: DPPH Scavenging at 1 mM, % of the listed items.
assayInfo: DPPH radical scavenging assay
condition: 1 mM compound

structureAsSmiles	endpointUnit	DPPH Scavenging at 1 mM, %
COC(=O)C1=C(C)N(CCc2ccccc2)C(=O)/C1=C\c1cc(OC)c(OC)cc1OC	%	9.7
COC(=O)C1=C(C)N(Cc2ccccc2)C(=O)/C1=C\c1ccccc1	%	47.5
COC(=O)C1=C(C)N(CCc2ccccc2)C(=O)/C1=C\c1cc(OC)c(OC)c(OC)c1	%	46.5
COC(=O)C1=C(C)N(CCc2ccccc2)C(=O)/C1=C\c1ccc(OCc2ccccc2Cl)c(OC)c1	%	27.3
COC(=O)C1=C(C)N(CCc2ccccc2)C(=O)/C1=C\c1ccc(OCc2ccccc2F)c(OC)c1	%	31.3
COC(=O)C1=C(C)N(CCc2ccccc2)C(=O)/C1=C\c1ccc(OCc2ccc(Cl)cc2)c(OC)c1	%	63.5
COC(=O)C1=C(C)N(CCc2ccc(OC)c(OC)c2)C(=O)/C1=C\c1ccc(OCc2ccc(Cl)cc2)c(OC)c1	%	85.5
COC(=O)C1=C(C)N(Cc2ccccc2)C(=O)/C1=C\c1ccc(OC)cc1	%	27.2
COC(=O)C1=C(C)N(CCc2ccccc2)C(=O)/C1=C\c1ccc2c(c1)OCO2	%	41.6

###

assayInfo: DPPH radical scavenging assay
condition: 1 mM compound

structureAsSmiles	DPPH Scavenging at 1 mM, % [%]
COC(=O)C1=C(C)N(CCc2ccccc2)C(=O)/C1=C\c1ccc(OC)cc1OC	27.0
COC(=O)C1=C(C)N(Cc2ccccc2)C(=O)/C1=C\c1ccc(Cl)cc1	36.6
COC(=O)C1=C(C)N(CCc2ccc(OC)c(OC)c2)C(=O)/C1=C\c1ccc(OCc2ccccc2Cl)c(OC)c1	73.6
COC(=O)C1=C(C)N(CCc2ccccc2)C(=O)/C1=C\c1c[nH]c2ccccc12	49.9

###

Quick reference: EC (2-fold luciferase activity) of the listed items.
Test system: Nrf2
assayInfo: Nrf2 induction, luciferase assay in AREc32 cells
Format: cell-based
condition: Arec32, 24 h, read-out: CD (concentration that doubles luciferase activity)

structureAsSmiles	endpointUnit	EC (2-fold luciferase activity)
COC(=O)C1=C(C)N(CCc2ccc(OC)c(OC)c2)C(=O)/C1=C\c1ccc(OCc2ccc(Cl)cc2)c(OC)c1	µM	21.4
COC(=O)C1=C(C)N(CCc2ccccc2)C(=O)/C1=C\c1ccc(OC)cc1OC	µM	10.4
COC(=O)C1=C(C)N(Cc2ccccc2)C(=O)/C1=C\c1ccccc1	µM	30.2
COC(=O)C1=C(C)N(CCc2ccccc2)C(=O)/C1=C\c1ccc2c(c1)OCO2	µM	17.9
